Values from patent US20050038047A1

TARGET_OR_SYSTEM: rat mGluR1a receptor (Rattus norvegicus)
Sequence (P23385 19-1199): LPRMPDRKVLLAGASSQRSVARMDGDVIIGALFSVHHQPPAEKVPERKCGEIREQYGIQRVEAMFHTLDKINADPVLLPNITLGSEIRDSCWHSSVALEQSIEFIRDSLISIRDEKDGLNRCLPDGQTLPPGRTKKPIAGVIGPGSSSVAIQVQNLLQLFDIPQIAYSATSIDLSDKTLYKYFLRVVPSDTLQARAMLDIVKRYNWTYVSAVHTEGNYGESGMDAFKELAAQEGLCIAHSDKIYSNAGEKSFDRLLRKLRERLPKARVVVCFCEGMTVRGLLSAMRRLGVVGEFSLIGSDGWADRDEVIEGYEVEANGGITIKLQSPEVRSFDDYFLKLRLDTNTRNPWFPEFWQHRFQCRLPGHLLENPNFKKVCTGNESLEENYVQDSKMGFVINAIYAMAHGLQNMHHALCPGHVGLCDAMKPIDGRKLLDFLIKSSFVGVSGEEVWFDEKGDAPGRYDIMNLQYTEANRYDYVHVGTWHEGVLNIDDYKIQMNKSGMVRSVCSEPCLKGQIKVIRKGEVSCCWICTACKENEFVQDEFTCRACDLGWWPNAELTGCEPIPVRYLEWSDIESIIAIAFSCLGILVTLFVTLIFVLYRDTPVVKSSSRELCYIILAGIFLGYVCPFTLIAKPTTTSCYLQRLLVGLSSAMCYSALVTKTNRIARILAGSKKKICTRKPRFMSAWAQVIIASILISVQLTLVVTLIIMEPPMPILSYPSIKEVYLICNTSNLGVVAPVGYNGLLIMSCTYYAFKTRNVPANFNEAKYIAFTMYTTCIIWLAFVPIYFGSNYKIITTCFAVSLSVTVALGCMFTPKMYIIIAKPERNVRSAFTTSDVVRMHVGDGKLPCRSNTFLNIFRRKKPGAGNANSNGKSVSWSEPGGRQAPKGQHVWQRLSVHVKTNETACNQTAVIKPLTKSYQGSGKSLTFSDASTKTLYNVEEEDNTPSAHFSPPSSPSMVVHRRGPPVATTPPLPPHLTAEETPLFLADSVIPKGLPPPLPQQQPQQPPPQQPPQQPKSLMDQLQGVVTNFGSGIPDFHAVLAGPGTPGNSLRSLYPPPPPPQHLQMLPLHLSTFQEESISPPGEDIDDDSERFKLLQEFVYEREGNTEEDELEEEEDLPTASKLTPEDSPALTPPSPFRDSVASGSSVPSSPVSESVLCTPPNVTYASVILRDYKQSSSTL
TEST: mGluR1 assay: antagonism of glutamate-evoked calcium internalisation in CHO-1a cells (FLIPr)
CONDITION_DESCRIPTION: CHO cells stably transfected with rat mGluR1a; 40 μM glutamate challenge; IC50 values converted to modified Ki values; read-out: binding affinities (mGluR1 assay)
READOUT_LABEL: Ki (nM)
The response must be a number in nM with no trailing unit.

Briefly, Ki measured for "OC1CCN(c2cc3c(NC4CCCCCC4)ncnc3cn2)CC1" : 3

Briefly, Ki measured for "OCCCNc1cc2c(NC3CCCCCC3)ncnc2cn1" : 2
